Examples of sequences with documented cleaved RNA product abundance follow.
system: Bacillus subtilis; experiment: cleaved RNA product abundance (RNA/gDNA barcode ratio) relative to median wild-type variant (ratio to wild type); higher = more accumulation of the downstream cleavage product; settings: experiment (reporter, strain, medium): exp 4a: truncated aprE reporter, strain BJT201 with 2% xylose (RNase J1 expressed); cleavage site: cggR-gapA (positions -7 to +36 mutated)
Lab note: record the figure alone, no unit after it.

Use these answered entries as a reference point.
ACAGACGAAGGAGCCGCAAAGAAGTTATTAAGGTATGAATAATCCCTCAGTATAAATATCTCTCACTTATTTAAA; 0.1
ACAGACGAAGGAGCCGCAAAGAAGTTATTAAGGGATGAATATACCCTCAATATAAATATCTCTCACTTATTTAAA; 0.485
ACAGACGAAGGAGCCGCACAGAAGTTATTCAGGGATGAATAATCCCTCAATATAAATATCTCTCACTTATTTAAA; 1.28
ACAGACGAAGGAGCCGCAAACAAGTTATTAAGGGATGAATAATCCCTCAATAAAAATATCTCTCACTTATTTAAA; 0.1

### Prompt Request - read-out cleaved RNA product abundance | tested on Bacillus subtilis | sequence `ACAGACGAAGGAGCCGCTAAGAAGTTATTAAGGGAAGAATAATCCCTCAATATAAATATCTCTCACTTATTTAAA`
### Response 0.638

### Prompt Request - read-out cleaved RNA product abundance | tested on Bacillus subtilis | sequence `ACAGACGAAGGAGCCGCAAAGAAGTTATTCAGGGATGAATAATACCTCAATATAAATATCTCTCACTTATTTAAA`
### Response 0.134

### Prompt Request - read-out cleaved RNA product abundance | tested on Bacillus subtilis | sequence `ACAGACGAAGGAGCCGCAAAGAATTTATTAAGGGATGAATAATCCCTCACTATAAATATCTCTCACTTATTTAAA`
### Response 0.283

### Prompt Request - read-out cleaved RNA product abundance | tested on Bacillus subtilis | sequence `ACAGACGAAGGAGCCGCAAAGAAGTTATTAAGGCATGAATAATCCCTCAATGTAAATATCTCTCACTTATTTAAA`
### Response 0.0571

### Prompt Request - read-out cleaved RNA product abundance | tested on Bacillus subtilis | sequence `ACAGACGAAGGAGCCGCAAAGAAGTTATTAAGGGATGAATATGCCCTCAATATAAATATCTCTCACTTATTTAAA`
### Response 0.363

### Prompt Request - read-out cleaved RNA product abundance | tested on Bacillus subtilis | sequence `ACAGACGAAGGAGCCGCAAAGAAGTTATTAAGGTATGAATACTCCCTCAATATAAATATCTCTCACTTATTTAAA`
### Response 0.135

* * *

tested on: Bacillus subtilis; assay: cleaved RNA product abundance (RNA/gDNA barcode ratio) relative to median wild-type variant (ratio to wild type); higher = more accumulation of the downstream cleavage product; details: experiment (reporter, strain, medium): exp 4a: truncated aprE reporter, strain BJT201 with 2% xylose (RNase J1 expressed); cleavage site: cggR-gapA (positions -7 to +36 mutated)
Metric name: cleaved RNA product abundance

ACAGACGAAGGAGCCGCAAAGAACTTATTAAGGGATGAATAATCCGTCAATATAAATATCTCTCACTTATTTAAA; 0.155
ACAGACGAAGGAGCCGCAAAGAAGTTATTAAGGGATGAACAATACCTCAATATAAATATCTCTCACTTATTTAAA; 0.229
ACAGACGAAGGAGCCGCAAAGAAGTTATTAAGTGATGAATAAACCCTCAATATAAATATCTCTCACTTATTTAAA; 0.0945
ACAGACGAAGGAGCCGCAAAGAAGTTATGAAGGTATGAATAATCCCTCAATATAAATATCTCTCACTTATTTAAA; 0.0823
ACAGACGAAGGAGCCGCAAAGAAGTAATTAAGGGATTAATAATCCCTCAATATAAATATCTCTCACTTATTTAAA; 0.379
ACAGACGAAGGAGCCGCAAAGAAGTTATTAAGGGATGAATCATCCATCAATATAAATATCTCTCACTTATTTAAA; 0.219

Pending sequence:
### Prompt Request - read-out cleaved RNA product abundance | tested on Bacillus subtilis | sequence `ACAGACGAAGGAGCCGCAAAGAAGTTATTAAGGGATGAATAATCCCTAAGTATAAATATCTCTCACTTATTTAAA`
### Response 0.502
